These measurements were taken from ChEMBL document CHEMBL1157246.

Each record here notes measured inhibition at 10 µg/mL.
system: HeLa; assay: Cytotoxicity against human HeLa cells at 10 ug/mL after 72 hrs by MTT assay; type: functional
Reported property: inhibition at 10 µg/mL (%)

Molecule | Test result
C/C(C(=O)/C=C/C(C)=C/C=C/C(C)(C)O)=C1/C(=O)C[C@H]2[C@@]3(C)CC[C@H](O)C(C)(C)[C@@H]3CC[C@]12C [GLOBOSTELLETIN] | 0
CC(=O)O[C@@H]1CC[C@@]2(C)[C@@H](CC[C@]3(C)/C(=C(\C)C(=O)/C=C/C(C)=C/C=C/C(C)(C)O)C(=O)C[C@@H]23)[C@@]1(C)C(=O)O [GLOBOSTELLATIC ACIDS A] | 0
COC(/C=C/C(C)=C/C=C/C(C)=C1/C(=O)C[C@H]2[C@@]3(C)CC[C@@H](O)[C@](C)(C(=O)O)[C@@H]3CC[C@]12C)C(C)(C)O (some centres undefined) [GLOBOSTELLATIC ACID D, G] | 25
CC(/C=C/C(O)C(C)(C)O)=C\C=C\C(C)=C1\C(=O)C[C@H]2[C@@]3(C)CC[C@@H](O)[C@](C)(C(=O)O)[C@@H]3CC[C@]12C (some centres undefined) [GLOBOSTELLATIC ACID L, M] | 42
CCOC(/C=C/C(C)=C/C=C/C(C)=C1/C(=O)C[C@H]2[C@@]3(C)CC[C@@H](OC(C)=O)[C@](C)(C(=O)O)[C@@H]3CC[C@]12C)C(C)(C)O (some centres undefined) [GLOBOSTELLATIC ACID J, K] | 0
CCOC(/C=C/C(C)=C/C=C/C(C)=C1/C(=O)C[C@H]2[C@@]3(C)CC[C@@H](O)[C@](C)(C(=O)O)[C@@H]3CC[C@]12C)C(C)(C)O (some centres undefined) [GLOBOSTELLATIC ACID H, I] | 23
C/C(C(=O)/C=C/C(C)=C/C=C/C(C)(C)O)=C1/C(=O)C[C@H]2[C@@]3(C)CC[C@@H](O)[C@](C)(C(=O)O)[C@@H]3CC[C@]12C [GLOBOSTELLATIC ACID F] | 0
CC(C)=CCC(O[C@H]1OC[C@@H](O)[C@@H](O)[C@H]1O)/C(C)=C/C=C/C(C)=C1\C(=O)C[C@H]2[C@@]3(C)CC[C@@H](O)C(C)(C)[C@@H]3CC[C@]12C (some centres undefined) | 100
CC(=O)O[C@@H]1CC[C@@]2(C)[C@@H](CC[C@]3(C)/C(=C(C)/C=C/C=C(\C)C(CC=C(C)C)O[C@@H]4OC[C@H](O)[C@H](O)[C@@H]4O)C(=O)C[C@@H]23)C1(C)C (some centres undefined) | 56
